We begin with a simple list: items and their reported Fold Difference (Control IC50).
# test target: F protein of wild type RSV A/Long (respiratory syncytial virus strain …, UniProt P12568 26-574)
# Sequence (P12568 26-574): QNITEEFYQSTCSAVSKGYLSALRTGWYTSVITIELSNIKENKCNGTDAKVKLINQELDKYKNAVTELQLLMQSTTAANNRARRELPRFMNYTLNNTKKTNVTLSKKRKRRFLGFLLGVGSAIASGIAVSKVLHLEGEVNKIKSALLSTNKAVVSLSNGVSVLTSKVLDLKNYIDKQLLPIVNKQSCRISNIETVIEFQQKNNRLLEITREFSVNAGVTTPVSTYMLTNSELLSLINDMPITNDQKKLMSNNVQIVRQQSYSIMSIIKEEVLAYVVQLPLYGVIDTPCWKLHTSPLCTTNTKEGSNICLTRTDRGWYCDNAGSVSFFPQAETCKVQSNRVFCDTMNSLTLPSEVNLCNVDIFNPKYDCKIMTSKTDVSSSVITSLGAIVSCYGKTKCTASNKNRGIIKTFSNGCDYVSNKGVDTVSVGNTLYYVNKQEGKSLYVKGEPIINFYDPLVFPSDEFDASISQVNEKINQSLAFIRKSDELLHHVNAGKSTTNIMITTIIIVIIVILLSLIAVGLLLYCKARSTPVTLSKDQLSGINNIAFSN
# method notes: cell-based or functional assay
Supply the numeric figure in fold, leaving out any unit text.

binder	readout unit	Fold Difference (Control IC50)
P11d4 (monoclonal antibody) (antibody, V domains shown, mAb with framework and constant regions of SYNAGIS) VH: QVTLRESGPALVKPTQTLTLTCTFSGFSLSTPGMSVGWIRQPPGKALEWLADIWWDGKKHYNPSLKDRLTISKDTSKNQVVLKVTNMDPADTATYYCARDMIFNWYFDVWGQGTTVTVSS VL: DIQMTQSPSTLSASVGDRVTITCSPSSRVGYMHWYQQKPGKAPKLLIYDTMRLASGVPSRFSGSGSGTEFTLTISSLQPDDFATYYCFQGSGYPFTFGGGTKVEIK	fold	19
P12f4 (Fab fragment) (Fab, V domains shown, Fab) VH: QVTLRESGPALVKPTQTLTLTCTFSGFSLSTPGMSVGWIRQPPGKALEWLADIWWDGKKHYNPSLKDRLTISKDTSKNQVVLKVTNMDPADTATYYCARDMIFNFYFDVWGQGTTVTVSS VL: DIQMTQSPSTLSASVGDRVTITCSLSSRVGYMHWYQQKPGKAPKLLIYDTRGLPSGVPSRFSGSGSGTEFTLTISSLQPDDFATYYCFQGSGYPFTFGGGTKVEIK	fold	15

Fold Difference (Control IC50) for A13c4 (monoclonal antibody) (antibody, V domains shown, mAb with framework and constant regions of SYNAGIS) VH: QVTLRESGPALVKPTQTLTLTCTFSGFSLSTAGMSVGWIRQPPGKALEWLADIWWDGKKSYNPSLKDRLTISKDTSKNQVVLKVTNMDPADTATYYCARDMIFNFYFDVWGQGTTVTVSS VL: DIQMTQSPSTLSASVGDRVTITCSLSSRVGYMHWYQQKPGKAPKLLIYDTMYQSSGVPSRFSGSGSGTEFTLTISSLQPDDFATYYCFQGSGYPFTFGGGTKVEIK ?
14

I am curious: what Fold Difference (Control IC50) value has been reported for P12f2 (Fab fragment) (Fab, V domains shown, Fab) VH: QVTLRESGPALVKPTQTLTLTCTFSGFSLSTPGMSVGWIRQPPGKALEWLADIWWDDKKHYNPSLKDRLTISKDTSKNQVVLKVTNMDPADTATYYCARDMIFNFYFDVWGAGTTVTVSS VL: DIQMTQSPSTLSASVGDRVTITCSLSSRVGYMHWYQQKPGKAPKLLIYDTFYLSSGVPSRFSGSGSGTEFTLTISSLQPDDFATYYCFQGSGYPFTFGGGTKVEIK ?
16

Recorded Fold Difference (Control IC50) for A1h5 (Fab fragment) (Fab, V domains shown) VH: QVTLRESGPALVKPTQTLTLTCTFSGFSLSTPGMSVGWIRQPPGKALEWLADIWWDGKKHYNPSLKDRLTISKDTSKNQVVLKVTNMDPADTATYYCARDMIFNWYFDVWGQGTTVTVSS VL: DIQMTQSPSTLSASVGDRVTITCSLSSSVGYMHWYQQKPGKAPKLLIYDTFFHRSGVPSRFSGSGSGTEFTLTISSLQPDDFATYYCFQGSGYPFTFGGGTKLEIK , please?
3

Hello, the source for this data is patent US20030091584A1, in case you need it.
